All figures here come from patent US20210369853A1.

target: BRD4 (Homo sapiens); construct: endogenous in cells; experiment: Western blot, protein degradation (DC50); type: cell-based; conditions: 6 h, western blot; read-out: BRD4 DC50 (6 h)
Form field: DC50 (one value per entry).

Please review the entries below; each comes with its answer.
[[record]]
compound = "CC[C@@H]1C(=O)N(C)c2cnc(Nc3ccc(C(=O)NCCOCCNCCCCCCC(=O)Nc4cccc5c4CN(C4CCC(=O)NC4=O)C5=O)cc3OC)nc2N1C1CCCC1 (some centres unmarked) [UB-180655]"
measured_property = "DC50"
recorded_measurement = "< 0.01 µM"

[[record]]
compound = "CC[C@@H]1c2c(C#N)ncn2-c2cnc(Nc3ccc(C(=O)NCCOCCOCCOCCC(=O)N[C@H](C(=O)N4C[C@H](O)C[C@H]4C(=O)NCc4ccc(-c5scnc5C)cc4)C(C)(C)C)cc3OC)nc2N1C1CCCC1 [UB-180529]"
measured_property = "DC50"
recorded_measurement = "> 1 µM"

[[record]]
compound = "CC[C@@H]1C(=O)N(C)c2cnc(Nc3ccc(C(=O)NCCCNCCCCCCCC(=O)Nc4cccc5c4CN(C4CCC(=O)NC4=O)C5=O)cc3OC)nc2N1Cc1ccc(Cl)s1 (some centres unmarked) [UB-180674]"
measured_property = "DC50"
recorded_measurement = "< 0.01 µM"

[[record]]
compound = "CC[C@@H]1c2nncn2-c2cnc(Nc3ccc(C(=O)NCCOCCOCCOCCOCC(=O)N[C@H](C(=O)N4C[C@H](O)C[C@H]4C(=O)NCc4ccc(-c5scnc5C)cc4)C(C)(C)C)cc3OC)nc2N1C1CCCC1 [UB-180523]"
measured_property = "DC50"
recorded_measurement = "> 1 µM"


Query compound follows.
Recall the recorded DC50 for CC[C@@H]1C(=O)N(C)c2cnc(Nc3ccc(C(=O)NCCCNCCCCCC(=O)Nc4cccc5c4CN(C4CCC(=O)NC4=O)C5=O)cc3OC)nc2N1C1CCCC1 (some centres unmarked) [UB-180660] with BRD4 (Homo sapiens) and state it. 0.01 to 0.1 µM
